B1: library; a variant is named by its letters at X, in order (parent)
chain: MNIQIGELAKRTACPVVTIRFYEQEGLLPPPGRSRGNFRLYGEEHVERLQFIRHCRSLDMPLSXVRTLLSYRKRPDQDCGEVXMLLDEHIRQVESRIGALLELXHHXVELREACSGARPAQSCGILQXLSXCVCXTRGTTAHXSD

variants of: B1; experiment: sfGFP reporter fluorescence (15 h) (µM FITC); higher = higher leak; details: library round: Round 3; ligand: none
Attribute: sfGFP reporter fluorescence
measured-quantity: sfGFP reporter fluorescence

>  <variant-id>
LILCGAAC V16C H54C C55P E81A H106A

>  <observed>
0.0437

$$$$
>  <variant-id>
KNKCTDDP M60L P61N

>  <observed>
2.34

$$$$
>  <variant-id>
KNRCMDDP P61N

>  <observed>
2.26

$$$$
>  <variant-id>
DTKLGCDA Q121A

>  <observed>
0.0408

$$$$
>  <variant-id>
DNRCMDAK D87E

>  <observed>
1.06

$$$$
>  <variant-id>
DTKCIDAP I125L

>  <observed>
0.059

$$$$
>  <variant-id>
DNRCIDAK G124A

>  <observed>
0.395

$$$$
>  <variant-id>
DTKIGDDP V108L E112A

>  <observed>
0.0428

$$$$
>  <variant-id>
KNICMDDP M60L

>  <observed>
2.28

$$$$
>  <variant-id>
DTKLGSDP V108L H142A

>  <observed>
0.0396

$$$$
>  <variant-id>
DNRCMDAK

>  <observed>
1.49

$$$$
>  <variant-id>
KCVCMDDP V16C

>  <observed>
0.185

$$$$
>  <variant-id>
DTKLGDAL Q121A

>  <observed>
0.041

$$$$
>  <variant-id>
DNKLGAPY V133A

>  <observed>
0.0571

$$$$
>  <variant-id>
DTKLGMAP V108L

>  <observed>
0.0403

$$$$
>  <variant-id>
LILCGAAC V16C H54C C55P H106A

>  <observed>
0.0452

$$$$
>  <variant-id>
DTKLGDPR V108L

>  <observed>
0.043

$$$$
>  <variant-id>
KNVCGADP M60L

>  <observed>
3.05

$$$$
>  <variant-id>
DTKLGCDP V108L Q121A

>  <observed>
0.043

$$$$
>  <variant-id>
DTKLGSPL

>  <observed>
0.0411

$$$$
>  <variant-id>
DTKCGAAP

>  <observed>
0.264

$$$$
>  <variant-id>
KFVLGDDP I90A H106A

>  <observed>
0.0469

$$$$
>  <variant-id>
DTKLGAPL Q121A

>  <observed>
0.0458

$$$$
>  <variant-id>
KFVLGDDA H106A

>  <observed>
0.0507

$$$$
>  <variant-id>
DNKCGAAP H54C C55P H106L

>  <observed>
0.0484

$$$$
>  <variant-id>
KFVLGDDT H106A

>  <observed>
0.0446

$$$$
>  <variant-id>
LIVCGAAP V16C H54C C55P H106A

>  <observed>
0.0452

$$$$
>  <variant-id>
KNKCMDDP M60L P61D

>  <observed>
3.01

$$$$
>  <variant-id>
DNVLGDDY H54A H142C

>  <observed>
0.0421

$$$$
>  <variant-id>
DNKCMDAA D87E

>  <observed>
0.936

$$$$
>  <variant-id>
DTKCGSAP

>  <observed>
0.21

$$$$
>  <variant-id>
DTKCMDAP G124A

>  <observed>
0.212

$$$$
>  <variant-id>
LCKCGAAP H54C C55P H106L

>  <observed>
0.0458

$$$$
>  <variant-id>
DNKCGAAY

>  <observed>
1.05

$$$$
>  <variant-id>
KFVLGDDR H106N

>  <observed>
0.0633

$$$$
>  <variant-id>
KNVLGDDR I90C H106A

>  <observed>
0.0676

$$$$
>  <variant-id>
DNRLGAPL

>  <observed>
0.0656

$$$$
>  <variant-id>
DNKCIDAK M84A G124A

>  <observed>
0.548

$$$$
>  <variant-id>
DTKCGADI

>  <observed>
0.227

$$$$
>  <variant-id>
ENKCMDAK

>  <observed>
0.33

$$$$
>  <variant-id>
KNVCMDDP M60L P61N

>  <observed>
0.987

$$$$
>  <variant-id>
DNKLGDDP

>  <observed>
0.0412

$$$$
>  <variant-id>
DNRCIDAK

>  <observed>
0.674

$$$$
>  <variant-id>
DTKLGHPY Q121A

>  <observed>
0.0423

$$$$
>  <variant-id>
KNVCMDDP E81A

>  <observed>
2.21

$$$$
>  <variant-id>
KIVLGDDR L62I

>  <observed>
0.0483

$$$$
>  <variant-id>
DTKLGMPP V108L

>  <observed>
0.0413

$$$$
>  <variant-id>
KNKLGDAP P61N L62I V108E

>  <observed>
0.0795

$$$$
>  <variant-id>
DNKCGADY G124A

>  <observed>
0.267

$$$$
>  <variant-id>
DTKLGSPP V108L Q121A

>  <observed>
0.0413

$$$$
>  <variant-id>
DTKLGAPW V108L

>  <observed>
0.0408

$$$$
>  <variant-id>
DTKLGAPW Q121A

>  <observed>
0.0438

$$$$
